- Tested on: NCI/ADR-RES ovarian
- Assay: NCI-60 one-dose screen, 48 h
- Condition: 10 µM unless noted
- Experimental: Growth inhibition of the NCI/ADR-RES human […] tumor cell line is measured as a screen for anti-cancer activity. Cells are grown in 96 well plates and exposed to the test compound for 48 hours. Compounds are tested at a single concentration, which is 10^-5 M for most compounds. The reported endpoint is percent growth (GI% or GIPRCNT), where numbers from 0 - 100% represent growth inhibition, and numbers from -100% - 0 represent cell death. For example, a value of 40 represents 60% growth inhibition. […]
The panel holds about 83,000 compounds, 20% with a hit somewhere; the sample as a whole holds those more often. Active and inactive are the calls of the source. How the source made its calls: active means growth percent below 10; inactive means the rest.
Could you please pick one outcome from this set? True for active, False for inactive

Example entries and their recorded answers appear below.
Molecule	Experimental System	Label Value
COc1ccc(C(=O)/C=C/c2c(C(F)(F)F)nc3ccccn23)cc1OC	NCI/ADR-RES ovarian	True
COc1ccc(C2=Nc3c(N)nc(N)nc3NC(c3cccc(Nc4ccnc5cc(C(F)(F)F)ccc45)c3)C2)cc1 (centres undefined)	NCI/ADR-RES ovarian	False
CCOC(=O)c1nn(-c2ccc(S(N)(=O)=O)cc2)c2nc(C)cc(=O)n12	NCI/ADR-RES ovarian	False

Here's the next entry for you.
Which result was noted for this molecule in the test: C=C1C(=O)O[C@H]2[C@H]1CC/C(COC(=O)c1cc3ccccc3s1)=C\CC[C@@]1(C)O[C@@H]21
True

====

- Tested on: M14 melanoma
- Assay: NCI-60 one-dose screen, 48 h
- Condition: 10 µM unless noted
About 83,000 compounds went through this panel and 20% of them were active in at least one assay; those are over-represented in the sample as a whole. Active and inactive are the calls of the source. The calls were made as follows: active = growth percent below 10; inactive = the rest.
Could you please pick one outcome from this set? active, inactive

Compound	Label Value
N#Cc1c(-c2ccccc2)cc(-c2ccccc2)n(CCCC(=O)Nc2ccccc2N)c1=O	inactive
COc1ccc(-c2cc(-c3cccnc3)nc3sc4c(=O)[nH]c(-c5ccc(Cl)cc5)nc4c23)cc1OC	inactive
COc1cc2cc(NCc3cccc(Cl)c3)nc(C)c2cc1OC	inactive
CCOC(=O)C1=C(C)NC(=O)NC1c1c(Cl)n(CCCl)c2ccccc12 (stereo not drawn)	inactive
N=C(N)c1ccc(-c2ccc(-c3ccc(Cl)c(Cl)c3)s2)nc1	inactive
Cc1cccc(/C=C/c2c(C(=O)/C=C/c3ccccc3)c(C)nc3ccccc23)c1	active
COc1ccc2c(c1)c(-c1nc(-c3c[nH]c4ccncc34)cs1)cn2C	active
CN(c1cc2ncc(=O)[nH]c2cc1NC(N)=NCc1ccc(Cl)cc1)C1CCCCC1	inactive

Which result was noted for this compound in the test: COc1ccc(C2=C(Br)C(=O)c3nc(C)ccc3C2=O)cc1
inactive

Which result was noted for this compound in the test: N#CSCC1CC(O)(c2ccccc2)CC(c2ccc(F)cc2)O1 (stereo not drawn)
active

Which result was noted for this compound in the test: CN(C)CC(C)(C)C(=O)/C=C/c1ccccc1
active

Which result was noted for this compound in the test: CS(=O)(=O)c1ccc(-c2cnn3ccc(-c4cccc(S(=O)(=O)C5CC5)c4)nc23)cc1
inactive

Which result was noted for this compound in the test: CCCCCCCC[C@@H]1N[C@@H](C(=O)OC)Cc2c1[nH]c1ccccc21
inactive

====

- Test system: NCI-H460 lung
- Assay: NCI-60 one-dose screen, 48 h
- Condition: 10 µM unless noted
The panel holds about 83,000 compounds, 20% with a hit somewhere; the sample as a whole holds those more often. Activity calls are given as the source filed them. Rule for the calls: active = growth percent below 10; inactive = the rest.
Could you please pick one outcome from this set? active, inactive

Example entries and their recorded answers appear below.
Molecule	Label Value
COc1ccc(Nc2ncc(Br)c(NCCCNC(=O)c3cccs3)n2)cc1	inactive
O=c1[nH]c(-c2ccccc2)nc2sc3cc(O)ccc3c12	inactive
COc1ccc(C(=O)c2cc3c(N)c(C(=O)Nc4ccc(C)cc4)sc3nc2C)cc1	active
CCOC(=O)n1ccn(C)c1=S	inactive
Cc1ccc(C[P+](c2ccccc2)(c2ccccc2)c2ccccc2)cc1	active

Which result was noted for this molecule in the test: N#CSCC1CC(O)(c2ccccc2)CC(c2ccc(F)cc2)O1 (configuration not stated)
active

Which result was noted for this molecule in the test: N=C(N)c1ccc(-c2ccc(-c3ccc(Cl)c(Cl)c3)s2)nc1
active
